# Test system: Plasma
# assay.name: Plasma protein binding in rat at 10 uM after 6 hrs
Label YES when PPB is strictly below 90%; otherwise label NO.

compound_structure=Nc1nnc(-c2cccc(Cl)c2)c(-c2ccccc2)n1 class_label=NO
compound_structure=Nc1nnc(-c2ccc(O)c(Cl)c2)c(-c2ccccc2)n1 class_label=NO
compound_structure=Cc1cc(-c2nnc(N)nc2-c2cccc(F)c2)cc(C)n1 class_label=YES
compound_structure=Cc1cc(-c2nnc(N)nc2-c2ccccc2)cc(C)n1 class_label=YES
compound_structure=Cc1cc(C)cc(-c2nnc(N)nc2-c2ccccc2)c1 class_label=NO
compound_structure=Cc1cc(-c2nnc(N)nc2-c2ccccc2)cc(C)c1O class_label=NO
compound_structure=Cc1cc(-c2nnc(N)nc2-c2ccc(F)cc2)cc(C(F)(F)F)n1 class_label=NO

====

# assay.name: Tmax in rat at 2 mg/kg, po
# Assay type: ADME, organism-based
# Set-up: dose 2 mg/kg, route oral
# measurement.context: in vivo
attribute.measured: Tmax (min)

compound_structure=Cc1cc(-c2nnc(N)nc2-c2ccccc2)cc(C(F)(F)F)n1 measured_result=24

====

# assay.name: Terminal half life in rat at 1 mg/kg, iv
# Assay type: ADME, organism-based
# Parameters: dose 1 mg/kg, route intravenous
# measurement.context: in vivo, read-out: beta t1/2 (converted)
attribute.measured: half-life (h)

compound_structure=Cc1cc(-c2nnc(N)nc2-c2ccccc2)cc(C(F)(F)F)n1 attribute_measured=half-life measured_result=1.2

====

# assay.name: Oral bioavailability in rat at 2 mg/kg
# Type: ADME, organism-based
# measurement.context: in vivo
attribute.measured: bioavailability

compound_structure=Cc1cc(-c2nnc(N)nc2-c2ccccc2)cc(C(F)(F)F)n1 measured_result=100%

====

# tested.target: Adenosine receptor A1 (Homo sapiens, UniProt P30542)
# Sequence (P30542 whole entry): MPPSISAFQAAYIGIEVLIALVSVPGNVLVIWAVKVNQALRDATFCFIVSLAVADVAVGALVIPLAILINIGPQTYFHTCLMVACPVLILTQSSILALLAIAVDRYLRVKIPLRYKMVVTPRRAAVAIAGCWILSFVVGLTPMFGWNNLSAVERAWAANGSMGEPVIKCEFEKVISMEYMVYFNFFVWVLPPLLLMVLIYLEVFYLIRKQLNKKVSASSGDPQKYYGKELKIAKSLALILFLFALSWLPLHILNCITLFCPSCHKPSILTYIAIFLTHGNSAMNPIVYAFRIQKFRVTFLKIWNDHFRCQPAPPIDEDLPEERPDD
Label YES when Ki is strictly below 100 nM; otherwise label NO.

compound_structure=Nc1nnc(-c2ccccc2)c(-c2ccccc2)n1 class_label=NO
compound_structure=Cc1cc(-c2nnc(N)nc2-c2ccccc2)cc(C)c1O class_label=YES
compound_structure=Cc1cc(-c2nnc(N)nc2-c2ccc(F)cc2)cc(C(F)(F)F)n1 class_label=NO
compound_structure=Cc1cc(-c2nnc(N)nc2-c2ccccc2)cc(C)n1 class_label=YES
compound_structure=Cc1cc(-c2nnc(N)nc2-c2cccc(F)c2)cc(C)n1 class_label=NO
compound_structure=Cc1cc(C)cc(-c2nnc(N)nc2-c2ccccc2)c1 class_label=NO
compound_structure=Cc1cc(-c2nnc(N)nc2-c2cc(F)cc(F)c2)cc(C)n1 class_label=NO

====

# tested.target: Adenosine receptor A2b (Homo sapiens, UniProt P29275)
# Sequence (P29275 whole entry): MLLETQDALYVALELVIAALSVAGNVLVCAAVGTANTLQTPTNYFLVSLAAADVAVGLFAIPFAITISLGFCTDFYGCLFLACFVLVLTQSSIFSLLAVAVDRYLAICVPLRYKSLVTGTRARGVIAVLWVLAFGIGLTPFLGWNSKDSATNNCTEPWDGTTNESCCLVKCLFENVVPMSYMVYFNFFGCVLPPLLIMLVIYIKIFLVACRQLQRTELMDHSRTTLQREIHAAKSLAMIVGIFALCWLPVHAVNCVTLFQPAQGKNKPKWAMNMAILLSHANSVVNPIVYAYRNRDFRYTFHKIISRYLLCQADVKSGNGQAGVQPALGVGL
# assay.name: Inhibition of adenosine A2B receptor
attribute.measured: Ki

compound_structure=Cc1cc(-c2nnc(N)nc2-c2ccccc2)cc(C)n1 tested_target="Adenosine receptor A2b (Homo sapiens, UniProt P29275)" attribute_measured=Ki measured_result="50.1 nM"

====

Quick reference: t1/2 of the listed items.
# System: Liver microsomes
# assay.name: Half life in rat liver microsomes at 1 uM
attribute.measured: t1/2 (h)

compound_structure=Nc1nnc(-c2ccccc2)c(-c2ccccc2)n1 measured_result=0.383
compound_structure=Cc1cc(-c2nnc(N)nc2-c2ccc(F)cc2)cc(C(F)(F)F)n1 measured_result=1.62
compound_structure=Cc1cc(-c2nnc(N)nc2-c2ccccc2)cc(C(F)(F)F)n1 measured_result=1.43
compound_structure=Cc1cc(-c2nnc(N)nc2-c2ccccc2)cc(C)n1 measured_result=1.67
compound_structure=Cc1cc(-c2nnc(N)nc2-c2cc(F)cc(F)c2)cc(C)n1 measured_result=1.67
compound_structure=Cc1cc(-c2nnc(N)nc2-c2ccccc2)cc(C)c1O measured_result=1.25
compound_structure=Nc1nnc(-c2cc(Cl)cc(Cl)c2)c(-c2ccccc2)n1 measured_result=1.8
compound_structure=Cc1cc(-c2nnc(N)nc2-c2cccc(F)c2)cc(C)n1 measured_result=1.3
compound_structure=Cc1cc(C)cc(-c2nnc(N)nc2-c2ccccc2)c1 measured_result=0.15
compound_structure=Nc1nnc(-c2ccc(O)c(Cl)c2)c(-c2ccccc2)n1 measured_result=1.15
compound_structure=Nc1nnc(-c2cccc(Cl)c2)c(-c2ccccc2)n1 measured_result=0.483

====

# assay.name: Volume of distribution at steady state in rat at 1 mg/kg, iv
# Assay type: ADME, organism-based
# Set-up: dose 1 mg/kg, route intravenous
# measurement.context: in vivo, read-out: Vdss
attribute.measured: Vd

compound_structure=Cc1cc(-c2nnc(N)nc2-c2ccccc2)cc(C(F)(F)F)n1 measured_result="4.6 L/kg"
